Test system: TK-10 renal
Experiment: NCI-60 one-dose screen, 48 h
Details: 10 µM unless noted
Compounds without any hit were thinned out: in the full panel of roughly 83,000, 20% have a hit. The source made the active and inactive calls. The calls were made as follows: active = growth percent below 10; inactive = the rest.
Answer with one of the outcomes given here: class 1 for active, class 0 for inactive

Consider the worked cases shown below.
Ask | Test call for this compound, please: `O=C1NC(SCc2ccc(F)cc2)=N/C1=C/c1cccc(OCc2ccc(Cl)cc2)c1`
Reply | class 1

Ask | Would you mind telling me which call this test gave `O=C(Nc1cccc(-c2cccc(F)c2)c1)C1CCN(Cc2cccc3cccnc23)CC1` ?
Reply | class 0

Ask | Hey, what did the test say about `COc1ccc(/C=C/C(=O)C(CC2CCC2)C(=O)/C=C/c2ccc(OC)c(OC)c2)cc1OC` ?
Reply | class 1

Ask | Outcome logged for `CC1=C(CCCOC(=O)NCCCl)C2=C(C)C3(CC3)[C@@](C)(O)C(=O)C2=C1` in this assay:
Reply | class 1

Ask | Tell me the recorded outcome of this test for `CCCCn1c(=O)c(/C=C/C(=O)/C=C/c2cc3ccccc3n(CCCC)c2=O)cc2ccccc21` .
Reply | class 0

***
Ask | What outcome does the record of this test show for `COC(=O)c1ccc2c(c1)NC(=O)[C@@H]1CCCN21` ?
Reply | class 0

###

Tested on: SK-MEL-2 melanoma
Assay: NCI-60 one-dose screen, 48 h
Settings: 10 µM unless noted
Compounds without any hit were thinned out: in the full panel of roughly 83,000, 20% have a hit. Activity calls are given as the source filed them. The calls were made as follows: active = growth percent below 10; inactive = the rest.
Entry note: the call must match one of yes (active), no (inactive)

# count of solved cases: 3
Ask | Hi, do you know how `O=C(Nc1nc(-c2ccccc2)cs1)c1cc(-c2ccc(Br)cc2)nc2ccccc12` came out in this test?
Reply | no

Ask | # outcome recorded in this test, key = `NC(=O)CN1C(=O)c2ccccc2C1=O`
Reply | no

Ask | Hello, I am checking results. What call was entered for CCOC(=O)C1=C(C)n2nc(CC#N)c(C#N)c2NC1c1ccc(Cl)cc1 (stereo not given) ?
Reply | no

Further cases:
Ask | Call for entry `O=C1Nc2ccc(Br)cc2/C1=N\N=C/c1cn(Cc2ccccc2)c2ccccc12` :
Reply | no

Ask | Please state the recorded outcome for this molecule: `COC(=O)c1nc(-c2ccccc2)oc1S(=O)(=O)n1nc(C)cc1N`
Reply | no

Ask | Check the results log: what was the call for `COC(=O)/C=C1\SC(=Nc2cccc(Cl)c2)N(CCc2c[nH]c3ccccc23)C1=O` ?
Reply | no

Ask | // param item: `c1ccc(Sc2ncccn2)nc1` ; yields the recorded call
Reply | no

Ask | Which outcome did this test record for the molecule `O=Cc1[nH]c(Sc2ccccc2)c2ccccc12` ?
Reply | no

Ask | Just curious, what result did c1cc(CNC23CC4CC(CC(C4)C2)C3)cc(C[N+](Cc2cccc(CNC34CC5CC(CC(C5)C3)C4)c2)(Cc2cccc(CNC34CC5CC(CC(C5)C3)C4)c2)Cc2cccc(CNC34CC5CC(CC(C5)C3)C4)c2)c1 (stereo not given) get here?
Reply | no

Ask | Fill in: this test's call for `N#Cc1c(-c2ccc(F)cc2)c(C#N)c2c(C#N)c(N)nn2c1N` is ___
Reply | no

Ask | Could you kindly confirm the outcome this assay logged for Cc1nc2sc(C(=O)Nc3cccc(Cl)c3C)c(N)c2cc1C(C)O (stereo not given) ?
Reply | no

Ask | Tell me the recorded outcome of this test for `CN(C)C1=NCCN1` .
Reply | no

###

Tested on: HT29 colon
Assay: NCI-60 one-dose screen, 48 h
Conditions: 10 µM unless noted
About 83,000 compounds went through this panel and 20% of them were active in at least one assay; those are over-represented in the sample as a whole. Active and inactive are the calls of the source. The calls were made as follows: active = growth percent below 10; inactive = the rest.
Your reply should match one of these outcome classes. active, inactive

These recorded examples may help you get a feel for the data.
Ask | How was `COc1cc2c(cc1OCCCOc1cc3c(cc1OC)C(=O)N1CC(F)(F)C[C@H]1C=N3)N=C[C@@H]1CC(F)(F)CN1C2=O` classified in this test?
Reply | inactive

Ask | Assay outcome for `Nc1n[nH]c2cccc(C#Cc3cccc(NC(=O)c4cc(N5CCOCC5)cc(C(F)(F)F)c4)c3)c12` : what was it?
Reply | inactive

Ask | I would be grateful if you could indicate the recorded call for `CC(C)(C)c1nn(-c2ccccc2)c2c1COCN2Cc1ccc(Cl)cc1` .
Reply | inactive

Ask | Check the results log: what was the call for `NCCN1CCNCC1` ?
Reply | inactive

Ask | What outcome does the record of this test show for `O=C(CCCCCCCCC(=O)Nc1cccc(C2=NCCN2)c1)Nc1cccc(C2=NCCN2)c1` ?
Reply | inactive

---
Ask | Record request — test call for `COc1ccccc1C(=O)/C=C/c1cc2cccc(OC)c2[nH]c1=O`
Reply | active

###

Test system: K-562 leukemia
Test: NCI-60 one-dose screen, 48 h (100 = growth as untreated, 0 = no growth, -100 = all killed)
Details: 10 µM unless noted
About 83,000 compounds went through this panel and 20% of them were active in at least one assay; those are over-represented in the sample as a whole.
// No strictly below 10% in growth; Yes otherwise

Ask | Does the molecule Nc1ccc(C2=NN(C(=O)c3cc(-c4ccc(Cl)cc4)nc4ccccc34)C(c3ccccc3)C2)cc1 (stereo not drawn) have recorded growth that is 10% or more?
Reply | Yes

Ask | Does the molecule `COc1ccc(C(=O)c2cc(F)c(F)c(OC)c2F)cc1OC(=O)CCl` have recorded growth that is 10% or more?
Reply | Yes

Ask | State whether the measured growth reaches 10%, counting equality as reaching it, for `COc1ccc2[nH]c(=O)c(/C=C/C(=O)/C=C/c3ccc(O)c(OC)c3)cc2c1`
Reply | No

Ask | Would you say `O=c1[nH]c2ccccc2cc1-c1nc2ccc(Cl)cc2[nH]1` shows growth at minimum 10%?
Reply | Yes

###

For each of the compounds below, state its growth.
Tested on: UO-31 renal
Assay: NCI-60 one-dose screen, 48 h (100 = growth as untreated, 0 = no growth, -100 = all killed)
Settings: 10 µM unless noted
The panel holds about 83,000 compounds, 20% with a hit somewhere; the sample as a whole holds those more often.
Give bare numbers, in %.

Please review the entries below; each comes with its answer.
Ask | // growth lookup, key: COc1ccc2c(c1)Oc1nc(N)c(C#N)c(N)c1C2Sc1ccc(O)cc1 (centres undefined)
Reply | 68.3

Ask | Need growth of `C=CCn1c(SCC(=O)Nc2ccc(C(=O)/C=C/c3ccc(Cl)cc3)cc2)nnc1-c1cc(OC)c(OC)c(OC)c1` , thanks.
Reply | 66.5

Ask | // lookup growth for `Cc1nccc2c3ccc(OCc4cn(-c5ccc(Cl)cc5)nn4)cc3n(CC(C)C)c12`
Reply | 12.4

Ask | Please give the measured growth for this compound: Cc1nc2sc(C(=O)Nc3cccc4ccccc34)c(N)c2cc1C(C)O (centres undefined)
Reply | 48.6

Ask | // growth lookup, key: `COc1ccccc1N1CCN(CCCOc2ccc(C(=O)/C=C3/C(=O)Nc4ccccc43)cc2)CC1`
Reply | 44.5

Ask | Consider the compound `COc1cc(NC(=O)c2cc(O)c(C/C=C(\C)CCC=C(C)C)c(O)c2)cc2c1O[C@]1(C)CC[C@@H](O)C(C)(C)[C@H]1C2` and give its measured growth.
Reply | -21.5

Ask | Sample `S=C(Nc1ccccc1)c1ccccn1` — what was its growth?
Reply | 57

Ask | # get_value(readout='growth', item= `[2H]c1nc(Nc2ncc3cc(C(=O)N(C)C)n(C4CCCC4)c3n2)c([2H])c([2H])c1N1C([2H])([2H])C([2H])([2H])NC([2H])([2H])C1([2H])[2H]` )
Reply | 52.5

Now consider the entry below.
Ask | Any idea what growth was measured for O=c1c2ccccc2n(CC(O)CN2CCCC2)c2c(Br)cccc12 (centres undefined) ?
Reply | 89.1

###

System: ACHN renal
Assay: NCI-60 one-dose screen, 48 h
Settings: 10 µM unless noted
About 83,000 compounds went through this panel and 20% of them were active in at least one assay; those are over-represented in the sample as a whole. Calls of active or inactive are those of the source. Rule for the calls: active = growth percent below 10; inactive = the rest.
Select the matching outcome among t = active, f = inactive

Observe how each entry below is paired with its result.
Ask | Which outcome was entered for the compound `CC[C@H](Nc1ncnc2nc[nH]c12)c1nc2cccc(CC(=O)c3ccc(C(=O)NO)cc3)c2c(=O)n1-c1ccccc1` in this test?
Reply | f

Ask | Dear colleague, could you share the recorded outcome for `COc1cccc(C(=O)OCCn2nc3c4c(cccc42)C(=O)c2ccccc2-3)c1O` when you have a moment?
Reply | f

Ask | What did the test return for `N#Cc1c(-c2ccc(Cl)cc2)cc(-c2cc3ccccc3o2)nc1SCC(=O)c1ccc(Cl)cc1` ?
Reply | f

Ask | Recorded test outcome, item `Nc1ccccc1NS(=O)(=O)c1ccc(Cl)cc1`
Reply | f

Ask | # lookup: test call for CC1CCCN(CCCCCOc2ccc3oc4ccc(Cl)cc4c(=O)c3c2)C1 (stereo not drawn)
Reply | f

Ask | Called result for `C=C1C(=O)O[C@H]2[C@H]1CC/C(COC(=O)CCCCCCC(=O)OC/C1=C/CC[C@@]3(C)O[C@H]3[C@H]3OC(=O)C(=C)[C@@H]3CC1)=C\CC[C@@]1(C)O[C@@H]21`
Reply | t

Ask | Each compound tested received a call. Report the one for `Cc1ccc(C(=O)O)o1` .
Reply | f

Ask | # fetch the recorded call for `O=C(O)C(C(=O)O)c1cccc2ccccc12` here
Reply | f

Ask | How did this test come out for COc1ccc2nc(-c3ccc(Cl)cc3)cc(C(=O)N3N=C(c4ccc(N)cc4)CC3c3ccccc3)c2c1 (stereo not drawn) ?
Reply | f

Ask | # outcome recorded in this test, key = `CCCCCCCc1n(Cc2ccc3ccccc3c2)c2ccccc2[n+]1Cc1ccc2ccccc2c1`
Reply | t

Next:
Ask | Hi, do you know how `Nc1c(C(=O)Nc2cccc3ccccc23)sc2nc3c(cc12)COCC3` came out in this test?
Reply | f

Ask | What outcome does the record of this test show for CCCCN(CCCC)CC(CN(CC)CC)OC(=O)Nc1ccccc1 (stereo not drawn) ?
Reply | f

Ask | Check the results log: what was the call for `CC1CCN(CCCCCOc2ccc3oc4ccccc4c(=O)c3c2)CC1` ?
Reply | f

Ask | Given `COc1ccc2[nH]c(-c3ccccc3)c(C=C(C#N)C#N)c2c1` , state the outcome it received in this test.
Reply | f

Ask | Hi, sorry to bother you, what did the test record for `COc1ccc(-c2cs/c(=N\N=C\c3ccc(O)cc3O)n2/N=C/c2ccc(O)cc2O)cc1` ?
Reply | t

Ask | For `Cc1nnc(/N=C2\NC(=O)/C(=C/c3ccc(N(C)C)cc3)S2)s1` , what call appears in the results of this test?
Reply | f

Ask | Name the outcome recorded for O=c1c2ccccc2n(CC(O)CN2CCCC2)c2c(Br)cccc12 (stereo not drawn) in the assay.
Reply | f

Ask | Field: outcome | Entry: `O=C(CCc1nnc2sc(OCc3ccccc3)nn12)c1nc2ccc([N+](=O)[O-])cc2[nH]1`
Reply | f

Ask | I'd appreciate the recorded outcome for NC(=O)c1ccc(C2C3=C(CCCC3=O)OC3=C2C(=O)c2ccccc2C3=O)cc1 (stereo not drawn) from this test.
Reply | f

Ask | Hi, do you know how `O=c1[nH]nc(-c2ccc(Br)cc2)c2sc(NC(=S)Nc3ccc(Cl)cc3)nc12` came out in this test?
Reply | f

These entries and their values trace back to PubChem BioAssay (NCI).
